FYI, the data here is from PubChem BioAssay (NCI).

Test system: MDA-MB-231 breast
protocol_description: NCI-60 one-dose screen, 48 h (100 = growth as untreated, 0 = no growth, -100 = all killed)
measurement_parameters: 10 µM unless noted
About 83,000 compounds went through this panel and 20% of them were active in at least one assay; those are over-represented in the sample as a whole.
Below, each entry is listed alongside its reported growth.
Respond numerically; units are % and should not be typed.

Record summary for Cc1cc(O)c2cc3c(O)c(O)ccc3cc2c1 : reported growth = 95.2

Data point: CCC(=O)NC1=C(Cl)C(=O)C(NC(=O)CC)=C(Cl)C1=O ; growth = 91.6

The molecule O=C1OCC2=C1C(c1ccccc1)c1cc3c(cc1N2CCO)OCO3 (centres undefined) showed growth equal to 52.2

growth measured on Cc1ccccc1Nc1n[nH]c(Cc2ccccc2)n1 = 110

According to the records, this molecule COc1ccc(C2=NNC(c3ccc(Oc4nc5c(c(=O)n(C)c(=O)n5C)n4C)c(OC)c3)C2)cc1 (centres undefined) displays growth of 93.3

COc1cccc(C2C(C#N)=C(N)Oc3cc4c(cc32)OCO4)c1 (centres undefined) has a reported growth of 30.2

// growth lookup, molecule = NC(N)=N/N=C/c1cccc(Cl)c1Cl , result: 81.6

Noted for C=C1C(=O)O[C@H]2[C@H]1CC/C(COC(=O)NCc1ccc(Cn3c(=O)sn(CCCl)c3=O)cc1)=C\CC[C@@]1(C)O[C@@H]21 : its growth reads 73.5

Sure, the documented growth for Cc1ccsc1C(=O)CC(=O)C(F)(F)C(F)(F)C(F)(F)F is 96.6
